Reported Dmax values for the following compounds.
testedOn: B-RAF G466V (Homo sapiens, UniProt P15056, G466V)
Construct: expressed in transfected cells; host or cells: T-Rex 293 cells (Invitrogen #R71007)
Sequence (P15056 whole entry G466V): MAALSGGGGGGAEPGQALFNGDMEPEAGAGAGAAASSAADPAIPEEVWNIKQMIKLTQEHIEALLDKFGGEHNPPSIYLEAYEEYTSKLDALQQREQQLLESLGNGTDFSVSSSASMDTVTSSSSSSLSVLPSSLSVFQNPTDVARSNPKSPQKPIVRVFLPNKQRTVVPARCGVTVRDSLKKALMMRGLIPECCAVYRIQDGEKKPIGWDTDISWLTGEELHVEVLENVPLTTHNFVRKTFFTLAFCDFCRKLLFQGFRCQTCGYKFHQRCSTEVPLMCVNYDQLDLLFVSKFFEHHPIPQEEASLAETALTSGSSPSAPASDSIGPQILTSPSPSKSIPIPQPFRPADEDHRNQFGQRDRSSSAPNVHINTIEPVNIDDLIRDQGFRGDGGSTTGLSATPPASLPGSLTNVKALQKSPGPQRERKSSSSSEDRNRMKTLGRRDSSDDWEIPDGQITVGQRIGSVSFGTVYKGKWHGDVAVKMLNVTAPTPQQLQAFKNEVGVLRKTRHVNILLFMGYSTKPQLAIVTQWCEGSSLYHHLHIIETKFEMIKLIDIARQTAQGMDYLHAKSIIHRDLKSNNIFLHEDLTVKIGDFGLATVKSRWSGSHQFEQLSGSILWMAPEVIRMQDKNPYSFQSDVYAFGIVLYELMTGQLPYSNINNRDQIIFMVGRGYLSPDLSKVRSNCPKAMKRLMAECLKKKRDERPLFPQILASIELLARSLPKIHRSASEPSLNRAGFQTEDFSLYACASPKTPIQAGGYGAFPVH
measurementProtocol: Target protein degradation, assay B: T-Rex 293 cells, HA-B-RAF_G466V, 96 well format
Type: cell-based
measurementContext: T-Rex 293 HA-B-RAF_G466V cells, 24 hours, Examples 1-82
Description: B. T-Rex 293 Cells (96 Well Format) T-Rex 293 cells were purchased from Invitrogen (#R71007), and stably transfected with a pcDNA4/TO_HA-B-RAF_G466V construct, using 400 ug Zeocin for selection. […] Plate was wash three times with 200 uL PBS++, and imaged on a high content reader (ImageXpress Micro XLS, Molecular Devices). […]

Use these answered entries as a reference point.
Look up Dmax with B-RAF G466V (Homo sapiens, UniProt P15056, G466V) for this compound: N#Cc1c(NS(=O)(=O)N2CC[C@@H](F)C2)ccc(F)c1Oc1ccc2ncn(-c3ccc(N4CCN(CC5CN(c6ccc7c(c6)CN([C@H]6CCC(=O)NC6=O)C7=O)C5)CC4)cc3)c(=O)c2c1 [Example 76]
≤ 35%

Look up Dmax with B-RAF G466V (Homo sapiens, UniProt P15056, G466V) for this compound: N#Cc1c(NS(=O)(=O)N2CC[C@@H](F)C2)ccc(F)c1Oc1ccc2ncn(-c3ccc(N4CCN(CC5CCN(c6ccc7c(c6F)CN([C@H]6CCC(=O)NC6=O)C7=O)CC5)CC4)cc3)c(=O)c2c1 [Example 73]
35 to 70%

Look up Dmax with B-RAF G466V (Homo sapiens, UniProt P15056, G466V) for this compound: N#Cc1c(NS(=O)(=O)N2CC[C@@H](F)C2)ccc(F)c1Oc1ccc2ncn(-c3ccc(N4CCN(C(=O)CC5(O)CCN(c6ccc(C7CCC(=O)NC7=O)cc6F)CC5)CC4)nc3)c(=O)c2c1 (stereo partly shown) [Example 69]
35 to 70%

Continuing:
Look up Dmax with B-RAF G466V (Homo sapiens, UniProt P15056, G466V) for this compound: N#Cc1c(NS(=O)(=O)N2CC[C@@H](F)C2)ccc(F)c1Oc1ccc2ncn(-c3ccc(N4CCN(CC5CCN(c6ccc7c(c6)CN([C@H]6CCC(=O)NC6=O)C7=O)CC5)CC4)cc3)c(=O)c2c1 [Example 77]
35 to 70%

Look up Dmax with B-RAF G466V (Homo sapiens, UniProt P15056, G466V) for this compound: N#Cc1c(NS(=O)(=O)N2CC[C@@H](F)C2)ccc(F)c1Oc1ccc2ncn(-c3ccc(N4CCN(C(=O)CC5(O)CCN(c6ccc(NC7CCC(=O)NC7=O)cc6F)CC5)CC4)nc3)c(=O)c2c1 (stereo partly shown) [Example 70]
≤ 35%

Look up Dmax with B-RAF G466V (Homo sapiens, UniProt P15056, G466V) for this compound: N#Cc1c(NS(=O)(=O)N2CC[C@@H](F)C2)ccc(F)c1Oc1ccc2ncn(-c3ccc(N4CCN(C(=O)CC5(O)CCN(c6ccc7c(c6)CN([C@H]6CCC(=O)NC6=O)C7=O)CC5)CC4)cc3)c(=O)c2c1 [Example 4]
35 to 70%

Look up Dmax with B-RAF G466V (Homo sapiens, UniProt P15056, G466V) for this compound: N#Cc1c(NS(=O)(=O)N2CC[C@@H](F)C2)ccc(F)c1Oc1ccc2ncn(-c3ccc(N4CCN(CC5CCN(c6ccc7c(c6)CN(C6CCC(=O)NC6=O)C7=O)CC5)CC4)cc3)c(=O)c2c1 (stereo partly shown) [Example 1]
35 to 70%

Look up Dmax with B-RAF G466V (Homo sapiens, UniProt P15056, G466V) for this compound: N#Cc1c(NS(=O)(=O)N2CC[C@@H](F)C2)ccc(F)c1Oc1ccc2ncn(-c3ccc(N4CCC(CN5CCC(c6ccc7c(c6F)CN(C6CCC(=O)NC6=O)C7=O)CC5)CC4)cc3)c(=O)c2c1 (stereo partly shown) [Example 79]
35 to 70%

Look up Dmax with B-RAF G466V (Homo sapiens, UniProt P15056, G466V) for this compound: N#Cc1c(NS(=O)(=O)N2CC[C@@H](F)C2)ccc(F)c1Oc1ccc2ncn(-c3ccn(C4CCN(CC5CCN(c6ccc7c(c6)CN(C6CCC(=O)NC6=O)C7=O)CC5)CC4)n3)c(=O)c2c1 (stereo partly shown) [Example 75]
≤ 35%

Look up Dmax with B-RAF G466V (Homo sapiens, UniProt P15056, G466V) for this compound: N#Cc1c(NS(=O)(=O)N2CC[C@@H](F)C2)ccc(F)c1Oc1ccc2ncn(-c3ccc(N4CCN(CC5CCN(c6cccc7c6ccn7C6CCC(=O)NC6=O)CC5)CC4)cc3)c(=O)c2c1 (stereo partly shown) [Example 74]
≤ 35%
